Target protein (sequence): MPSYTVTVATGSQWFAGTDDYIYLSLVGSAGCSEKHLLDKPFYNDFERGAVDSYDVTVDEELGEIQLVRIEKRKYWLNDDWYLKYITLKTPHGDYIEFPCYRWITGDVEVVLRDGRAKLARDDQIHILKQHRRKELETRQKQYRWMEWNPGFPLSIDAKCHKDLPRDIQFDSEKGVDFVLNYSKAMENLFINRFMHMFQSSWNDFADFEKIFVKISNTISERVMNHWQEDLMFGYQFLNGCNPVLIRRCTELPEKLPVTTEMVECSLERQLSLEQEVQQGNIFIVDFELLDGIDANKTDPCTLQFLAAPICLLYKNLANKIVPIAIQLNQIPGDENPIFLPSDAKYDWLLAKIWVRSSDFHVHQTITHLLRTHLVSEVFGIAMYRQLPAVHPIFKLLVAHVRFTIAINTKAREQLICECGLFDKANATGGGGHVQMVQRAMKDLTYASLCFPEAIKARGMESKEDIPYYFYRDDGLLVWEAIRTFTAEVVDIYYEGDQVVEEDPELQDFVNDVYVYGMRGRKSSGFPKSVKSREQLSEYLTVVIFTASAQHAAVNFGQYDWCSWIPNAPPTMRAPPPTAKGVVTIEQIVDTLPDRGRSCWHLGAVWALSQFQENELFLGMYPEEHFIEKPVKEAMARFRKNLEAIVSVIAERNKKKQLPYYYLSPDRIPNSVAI
PROPERTY_LABEL: IC50 (µM)
Value expressed in µM; do not type the unit.

IN: Please give the documented IC50 of `O=C(NCCCC[C@@H](CO)NC(=O)c1cccc(O)c1O)c1ccccc1`
OUT: 3.15

IN: Please give the documented IC50 of `O=C(NCCCC[C@@H](CO)NC(=O)c1c(O)cccc1F)c1c(O)cccc1F`
OUT: 3.6

IN: Please give the documented IC50 of `O=C(N[C@H](CO)CCCCNC(=O)c1cccc(O)c1O)c1ccccc1Cl`
OUT: 3.64

IN: Please give the documented IC50 of `O=C(N[C@H](CO)CCCCNC(=O)c1cccc(O)c1O)c1ccccc1F`
OUT: 8.09

IN: Please give the documented IC50 of `O=C(N[C@H](CO)CCCCNC(=O)c1cccc(O)c1O)c1ccccc1O`
OUT: 3.54

IN: Please give the documented IC50 of `O=C(NCCCC[C@@H](CO)NC(=O)c1cccc(O)c1O)c1ccccc1O`
OUT: 1.52

IN: Please give the documented IC50 of `O=C(NCCCC[C@@H](CO)NC(=O)c1ccccc1O)c1ccccc1O`
OUT: 9.32

Ref: BindingDB's records for doi:10.1002/cbic.201500446
